target: glucose-6-phosphate-dehydrogenase; test: Inhibition of glucose-6-phosphate-dehydrogenase (G6PDH); assay type: biochemical; conditions: 37° C. for 60 minutes preincubation
// values below are reported G6PDH-inhibition Ed50, Inhibition of Incubation
The response must be a number in µg/mL with no trailing unit.

Look over these answered cases.
// G6PDH-inhibition Ed50, Inhibition of Incubation lookup, key: CCc1c(O)ccc(C(=O)C(F)(F)F)c1O [C, reference compound]
20

# G6PDH-inhibition Ed50, Inhibition of Incubation lookup, item CCc1cc(C(=O)C(F)(F)F)c(O)cc1O [B, reference compound]
30

Others:
Fill blank: measured G6PDH-inhibition Ed50, Inhibition of Incubation of the molecule CC(C)Cc1c(O)ccc(C(=O)C(F)(F)F)c1O [F] is ____.
27.7

---

Listed compounds paired with reported MIC
system: Streptococcus Aronson; experiment: Agar diffusion test (hole-test); type: cell-based; settings: 18-20 hours at 37° C., read-out: MIC, A.D.T., Streptococcus Aronson

Please review the following examples before continuing.
Consider the compound CCc1cc(C(=O)C(F)(F)F)c(O)c(Cc2c(O)c(CC)cc(C(=O)C(F)(F)F)c2O)c1O and give its measured MIC.
≤ 15.6 µg/mL

Record request: MIC value, item CCCCC(C)c1c(O)ccc(C(=O)C(F)(F)F)c1O (stereo not drawn)
≤ 15.6 µg/mL

API: the following record is the query input.
MIC lookup needed for CC1CC(C)CC(c2cc(C(=O)C(F)(F)F)c(O)cc2O)C1 (stereo not drawn) , thanks.
≤ 15.6 µg/mL

---

System: Staphylococcus aureus SG 511
Experiment: Serial dilution test
Format: cell-based
Conditions: Staphylococcus aureus, SG511, 18-20 hours at 37° C., read-out: MIC, S.D.T., Staphylococcus aureus SG 511
Protocol: The inhibitory effect on bacteria and fungi was examined by the serial dilution test and the agar diffusion test (hole-test). As bacteria were used: Staphylococcus aureus SG 511, Streptococcus Aronson, Streptococcus pyogenes At CC 86 68; as fungi: Candida albicans AT CC 10231, Trichophyton mentagrophytes AT CC 9129 and Aspergillus niger. 1. Meat extract broth: for St. aureus SG 511 The age of the primary cultures is 24 hours for bacteria and 14 days for fungi. […]
Below, each of the compounds is paired with its reported MIC value.
Supply the numeric figure in µg/mL, leaving out any unit text.

# value lookup — system Staphylococcus aureus SG 511, readout MIC, item Cc1c(O)c(Cc2cc(C(=O)C(F)(F)F)c(O)c(C)c2O)cc(C(=O)C(F)(F)F)c1O [S]
1.25

Please provide the recorded MIC for O=C(c1ccc(O)c(C2CCCC2)c1O)C(F)(F)F [N] , tested on Staphylococcus aureus SG 511.
1.25

Next:
Form entry - test system: Staphylococcus aureus SG 511; read-out: MIC; compound: CC1CC(C)CC(c2cc(C(=O)C(F)(F)F)c(O)cc2O)C1 (stereo not shown) [I]
0.31

Kindly state the measured MIC obtained for CC(C)c1cc(C(=O)C(F)(F)F)c(O)c(Cc2c(O)c(C(=O)C(F)(F)F)cc(C(C)C)c2O)c1O [Compound Q] with Staphylococcus aureus SG 511.
0.08

Identify the measured MIC of CC1CCC(c2c(O)ccc(C(=O)C(F)(F)F)c2O)CC1 (stereo not shown) [H] for Staphylococcus aureus SG 511.
0.31

Give Staphylococcus aureus SG 511 MIC for CCCCC(C)c1c(O)ccc(C(=O)C(F)(F)F)c1O (stereo not shown) [K]
1.25

What MIC appears in the records for this compound with Staphylococcus aureus SG 511? CCCCCCCCC(C)c1c(O)ccc(C(=O)C(F)(F)F)c1O (stereo not shown) [M]
1.25

Item: CCc1cc(C(=O)C(F)(F)F)c(O)c(Cc2c(O)c(CC)cc(C(=O)C(F)(F)F)c2O)c1O [R] Test system: Staphylococcus aureus SG 511 Read-out: MIC Value: ?
0.08

What measured MIC is associated with CC(C)Cc1c(O)ccc(C(=O)C(F)(F)F)c1O [F] on Staphylococcus aureus SG 511?
0.08
